Source of measurements: PubChem BioAssay (NCI)

Recorded growth values for a group of compounds are listed next.
Tested on: UO-31 renal
Experiment: NCI-60 one-dose screen, 48 h (100 = growth as untreated, 0 = no growth, -100 = all killed)
Conditions: 10 µM
The panel holds about 83,000 compounds, 20% with a hit somewhere; the sample as a whole holds those more often.
attribute-measured: growth (%)

>  <compound>
COc1cc(Cl)cc(-c2nn(-c3cccc(NC(=O)c4ccc(Cl)c(Cl)c4)c3)cc2-c2ccncc2)c1

>  <system-under-test>
UO-31 renal

>  <unit>
%

>  <observed>
43.5

$$$$
>  <compound>
CC(C)=CCc1ccc(O)c(=O)cc1C(C)C

>  <system-under-test>
UO-31 renal

>  <unit>
%

>  <observed>
-10.4

$$$$
>  <compound>
COc1cc(NC(=O)CSc2nc3ccccc3c(=O)n2CCc2ccccc2)cc(OC)c1OC

>  <system-under-test>
UO-31 renal

>  <unit>
%

>  <observed>
-63.2

$$$$
>  <compound>
CC(=O)n1c(-c2ccc(Cl)c(Cl)c2)cn(-c2ccc(Cl)cc2)c1=O

>  <system-under-test>
UO-31 renal

>  <unit>
%

>  <observed>
3.31

$$$$
>  <compound>
O=C(N/N=C\c1cc(Cl)ccc1[N+](=O)[O-])c1ccco1

>  <system-under-test>
UO-31 renal

>  <unit>
%

>  <observed>
104

$$$$
>  <compound>
O=C1/C(=C\c2ccccc2)CN(C(=O)c2ccccc2F)C/C1=C\c1ccccc1

>  <system-under-test>
UO-31 renal

>  <unit>
%

>  <observed>
12.4

$$$$
>  <compound>
N=C(N)c1ccc(-c2ccc(-c3cccs3)s2)cc1

>  <system-under-test>
UO-31 renal

>  <unit>
%

>  <observed>
17.1

$$$$
>  <compound>
O=C(Nc1ccc(Cl)cc1)N1NC(c2ccc(Cl)cc2)C=C1c1ccccc1 (stereo not drawn)

>  <system-under-test>
UO-31 renal

>  <unit>
%

>  <observed>
85.8

$$$$
>  <compound>
CCCCN(CCCC)CCCCCCCCC(O)c1cc2ccccc2c2ccccc12 (stereo not drawn)

>  <system-under-test>
UO-31 renal

>  <unit>
%

>  <observed>
52.3

$$$$
>  <compound>
COc1ccccc1/C=C/C(=O)c1ccccc1

>  <system-under-test>
UO-31 renal

>  <unit>
%

>  <observed>
60.1

$$$$
>  <compound>
Nc1ccc2c(c1)Cc1cc(N)c(Br)cc1-2

>  <system-under-test>
UO-31 renal

>  <unit>
%

>  <observed>
76.9

$$$$
>  <compound>
COc1ccc2c(c1)sc1nc(-c3ccccc3)c(-c3ccsc3)n12

>  <system-under-test>
UO-31 renal

>  <unit>
%

>  <observed>
37.8

$$$$
>  <compound>
CN(C)CCS(=O)(=O)CCN(C)C

>  <system-under-test>
UO-31 renal

>  <unit>
%

>  <observed>
113

$$$$
>  <compound>
COc1cc(-c2cc(/C=C/C(=O)c3ccc4c(c3)OCO4)[nH]n2)cc(OC)c1OC

>  <system-under-test>
UO-31 renal

>  <unit>
%

>  <observed>
38.7

$$$$
>  <compound>
COc1ccc2c(c1)O/C(=C\c1ccc([N+](=O)[O-])s1)C2=O

>  <system-under-test>
UO-31 renal

>  <unit>
%

>  <observed>
24

$$$$
>  <compound>
O=C(Nc1ccncc1)C(=O)c1cn(S(=O)(=O)c2cccc3ccccc23)c2ccccc12

>  <system-under-test>
UO-31 renal

>  <unit>
%

>  <observed>
58.5

$$$$
>  <compound>
CN(C)CC(O)c1ccc2cc(Br)c3ccccc3c2c1 (stereo not drawn)

>  <system-under-test>
UO-31 renal

>  <unit>
%

>  <observed>
57.6

$$$$
>  <compound>
CCCCCCCCCCCC[n+]1ccc(C(N)=O)cc1

>  <system-under-test>
UO-31 renal

>  <unit>
%

>  <observed>
64.4

$$$$
